From: the domain aggregation screens of Martell et al. (2025)

Experiment: soluble fraction after stress (log2 fold change); higher = more stays soluble; pooled small domains, quantitative proteomics;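 also: 20 min heating vs room temperature control held 20 min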
Conditions: stress: 75 degC
Quick reference: soluble fraction (log2) of the listed items.

// recorded soluble fraction (log2) for HMDKSFLQSLHLIALGIVKNQMDPWELVNGWVEYYLKNKDKYIDHPNLKAVAVLKMKGLFIDHFRKS : -5.84

Others:
Looking up HMRQFEPVEGYNPYADKNELHGYEYWGAKFADSRSPEETAWIKQQIDDENEDRRFISEAGLA , I found its soluble fraction (log2) recorded as 0.0889

----------
Experiment: soluble fraction after stress (log2 fold change); higher = more stays soluble; pooled small domains, quantitative proteomics
Conditions: stress: 75 degC
// Not satisfied strictly below -0.5 in soluble fraction (log2); Satisfied otherwise

Please review the following examples before continuing.
Lookup: // inclusive: soluble fraction (log2) at least -0.5? input: HMRAVPSIAFVTQKLIEQGVTMEQLVRSLLLDHEEYENDDSLERTADELFGKARMIISNYTPE
Found: Not satisfied

Lookup: Item HMNQAIIVPDVKGLPLEEATTFFENNDLRYTVIDSVYTKDVPPGAIYEMVPGAGSKVKEGRIIFVTLNAR with soluble fraction (log2) of -0.5 or above?
Found: Satisfied

Others:
Lookup: State whether the measured soluble fraction (log2) reaches -0.5, counting equality as reaching it, for HMSQRITYTEFVQMVKDDKVEKVEVGANQYNITPKSDDKTLVKMTYYTGFIKDENLLDLLNKHKVEIDGYI
Found: Not satisfied

Lookup: Answer whether soluble fraction (log2) of HMSDLPLLEHARQNLSDDEFRILELTTIYGYRRVEVAKMLGEPISTINWKYNKLIKKVKTFYGEVYN is greater than or equal to -0.5.
Found: Not satisfied

Lookup: Hello, I need to know if HMPIDIEPVLQWIRDNSIDGIGPARSMYHSAAAAAGLPSYSSLQLRKWTWPLLLDAAGVQRR has measured soluble fraction (log2) not below -0.5. Thanks!
Found: Satisfied
